Cited source for all entries: ChEMBL document CHEMBL4616586

Experiment: Cytotoxicity against dog MDCK cells assessed as reduction in cell viability by MTT assay
Type: cell-based, Canis lupus familiaris
READOUT TYPE: CC50

**Q:** Dear colleague, I am looking for the recorded CC50 of the following compound: O=C1/C(=C/c2cccc(Cl)c2)Oc2ccccc21
**A:** 26.9 µM

**Q:** Follow-up item: COc1ccc(-c2cc(=O)c3ccccc3o2)cc1 [4'-METHOXYFLAVONE]
**A:** 192 µM

**Q:** Follow-up item: COc1cccc(/C=C2\Oc3ccccc3C2=O)c1 [3'-METHOXY-AURONE]
**A:** 7.81 µM

**Q:** Follow-up item: O=c1cc(-c2ccc(Cl)cc2)oc2ccccc12
**A:** 115 µM

**Q:** Follow-up item: O=C1/C(=C/c2ccc(Cl)cc2)Oc2ccccc21
**A:** 272 µM

====

Tested on: Influenza A virus
Test: Antiviral activity against Influenza A virus (H1N1) infected in dog MDCK cells assessed as reduction in log2HA titer incubated for 3 to 4 days by CPE assay
Type: functional, organism-based
READOUT TYPE: pEC50
Hey, just a heads up that pEC50 is the negative log base 10 of the concentration in molar.

**Q:** Dear colleague, I am looking for the recorded pEC50 of the following compound: O=c1cc(-c2cccc(Cl)c2)oc2ccccc12
**A:** 7.32

**Q:** Follow-up item: O=C1/C(=C/c2ccc(Cl)cc2)Oc2ccccc21
**A:** 7.29

**Q:** Follow-up item: COc1ccc(-c2cc(=O)c3ccccc3o2)cc1
**A:** 8.03

**Q:** Follow-up item: O=c1c(O)c(-c2ccc(O)c(O)c2)oc2cc(O)cc(O)c12
**A:** 7.07

**Q:** Follow-up item: O=c1cc(-c2cccc([N+](=O)[O-])c2)oc2ccccc12
**A:** 7.85

**Q:** Follow-up item: CCC(CC)O[C@@H]1C=C(C(=O)O)C[C@H](N)[C@H]1NC(C)=O [OSELTAMIVIR CARBOXYLATE]
**A:** 8.15

**Q:** Follow-up item: O=c1cc(-c2ccc(Cl)cc2)oc2ccccc12
**A:** 7.44

**Q:** Follow-up item: COc1ccc(/C=C2\Oc3ccccc3C2=O)cc1
**A:** 7.45

**Q:** Follow-up item: COc1cccc(-c2cc(=O)c3ccccc3o2)c1
**A:** 7.90

**Q:** Follow-up item: O=C1/C(=C/c2ccc([N+](=O)[O-])cc2)Oc2ccccc21
**A:** 7.33

====

Experiment: Selectivity index, ratio of CC50 for dog MDCK cells to EC50 for Influenza A virus (H1N1) infected in dog MDCK cells
Format: toxicity, cell-based
Details: read-out: Ratio CC50/EC50
READOUT TYPE: selectivity ratio
Answer with a number only.

**Q:** Dear colleague, I am looking for the recorded selectivity ratio of the following compound: O=C1/C(=C/c2ccc(Cl)cc2)Oc2ccccc21
**A:** 5300

**Q:** Follow-up item: O=C1/C(=C/c2ccc([N+](=O)[O-])cc2)Oc2ccccc21
**A:** 4600

**Q:** Follow-up item: COc1ccc(/C=C2\Oc3ccccc3C2=O)cc1 [4'-METHOXY-AURONE]
**A:** 4800

**Q:** Follow-up item: O=c1cc(-c2ccc(Cl)cc2)oc2ccccc12
**A:** 3210

**Q:** Follow-up item: COc1ccc(-c2cc(=O)c3ccccc3o2)cc1 [4'-METHOXYFLAVONE]
**A:** 20500

**Q:** Follow-up item: O=c1cc(-c2cccc([N+](=O)[O-])c2)oc2ccccc12
**A:** 19100

**Q:** Follow-up item: O=c1c(O)c(-c2ccc(O)c(O)c2)oc2cc(O)cc(O)c12 [QUERCETIN]
**A:** 3010

**Q:** Follow-up item: COc1cccc(-c2cc(=O)c3ccccc3o2)c1
**A:** 21000

**Q:** Follow-up item: O=c1cc(-c2cccc(Cl)c2)oc2ccccc12
**A:** 3650
